experiment: signal artefacts in PPARgamma/SRC-3 readout – biochemical, TR-FRET ratio, artefact control for PPARgamma SRC-3 recruitment agonists (AID 1048); conditions: TR-FRET artefact counter-screen, PPARgamma/SRC-3 format; at 8 µM; stronger effect = higher value
The campaign covered roughly 99,000 compounds. About 390 (0.39%) were called active. What follows is part of a selection rich in actives, with near analogues and random picks from the rest.
Item-by-item account of TR-FRET ratio

CCOc1ccc(NC(=O)CSc2nc3ccccc3c(=O)n2Cc2cccs2)cc1; 1640 (inactive)
CN(C)/N=C/c1cn(-c2ccccc2)nc1-c1cccnc1; 1610 (inactive)
CC1(C)CC(=O)C(C2c3ccccc3S(=O)(=O)c3ccccc32)C(=O)C1; 1570 (inactive)
CCOC(=O)C1(CCOc2ccccc2)CCN(C(=O)c2cncs2)CC1; 1510 (inactive)

Name the recorded TR-FRET ratio for `O=C(O)Cc1ccc(-c2ccccc2)cc1` . 1600 (inactive)

What does the data say about its TR-FRET ratio? Entry: `O=C(CCC(=O)NNc1nc2ccccc2c2nc(-c3ccccc3)nn12)NCCCN1CCCC1=O` 1570 (inactive)

Requested read-out: TR-FRET ratio. Entry: CC1=CC=CN2C1=NC(=O)CC2(C)C(=O)N(CC(=O)NC1CCCC1)c1ccccc1C (configuration not stated) 1450 (inactive)

Query: TR-FRET ratio; subject: CC(=O)c1ccc(S(=O)(=O)Nc2ccc(C(=O)NCC(c3ccccc3)N(C)C)cc2)cc1 (configuration not stated) 1580 (inactive)

Recorded TR-FRET ratio of `O=C(Cc1c(F)cccc1Cl)Nc1ccc(-n2cnnn2)cc1` , please. 1510 (inactive)

Find the recorded TR-FRET ratio belonging to `O=C(N1CCCCC1)N1CCN(C(=O)N2CCCCC2)CC1` and report it. 1530 (inactive)

Item `CCOc1ccc(NC(=O)CSc2ncnc3c2sc2ccccc23)cc1` has what recorded TR-FRET ratio? 3140 (active)

Item under review: `Cc1ccc(Cl)cc1N1CCN(C(=O)c2cccc3c(=O)c(C)c(-c4ccccc4)oc23)CC1` . Reported TR-FRET ratio? 1350 (inactive)

Reported TR-FRET ratio for `Cc1ccnc(NC(=O)CCC(=O)N(CC(=O)NCCc2ccccc2)Cc2cccs2)c1` : what is it? 1720 (inactive)

Name the reported TR-FRET ratio value associated with the molecule `Fc1ccccc1Cc1ccc(Cl)nn1` 1250 (inactive)

Name the reported TR-FRET ratio value associated with the molecule `COc1ccc(-n2c(=S)[nH]c3sc4c(c3c2=O)CCc2ccccc2-4)cc1` 1560 (inactive)
